- Test system: Streptococcus pneumoniae
- method: Antibacterial activity against mef and erm(B) positive Streptococcus pneumoniae isolates by broth microdilution method
- Assay type: functional
readout: MIC50 (µg/mL)
Field: numeric (µg/mL). Do not append units.

Please review the entries below; each comes with its answer.
compound: CCC[C@@H]1C[C@@H](C(=O)N[C@@H]([C@H]2O[C@H](SC)[C@H](O)[C@@H](O)[C@H]2O)[C@H](C)Cl)N(C)C1 [CLINDAMYCIN]
studySystem: Streptococcus pneumoniae
unitAbbrev: µg/mL
MIC50: 64
//
compound: CC1(C)S[C@@H]2[C@H](NC(=O)Cc3ccccc3)C(=O)N2[C@H]1C(=O)O [PENICILLIN G]
studySystem: Streptococcus pneumoniae
unitAbbrev: µg/mL
MIC50: 1
//
compound: CO/N=C(\C(=O)N[C@@H]1C(=O)N2C(C(=O)O)=C(COC(C)=O)CS[C@H]12)c1csc(N)n1 [CEFOTAXIME]
studySystem: Streptococcus pneumoniae
unitAbbrev: µg/mL
MIC50: 0.5
//
compound: CN(C)[C@@H]1C(O)=C(C(N)=O)C(=O)[C@@]2(O)C(O)=C3C(=O)c4c(O)cccc4[C@@](C)(O)[C@H]3C[C@@H]12 [TETRACYCLINE]
studySystem: Streptococcus pneumoniae
unitAbbrev: µg/mL
MIC50: 16

Query: Give Streptococcus pneumoniae MIC50 for CC[C@H]1OC(=O)[C@H](C)[C@@H](O[C@H]2C[C@@](C)(OC)[C@@H](O)[C@H](C)O2)[C@H](C)[C@@H](O[C@@H]2O[C@H](C)C[C@H](N(C)C)[C@H]2O)[C@](C)(O)C[C@@H](C)C(=O)[C@H](C)[C@@H](O)[C@]1(C)O [ERYTHROMYCIN]
Reply: 64

Query: Another compound to check: CC[C@H]1OC(=O)[C@H](C)C(=O)[C@H](C)[C@@H](O[C@@H]2O[C@H](C)C[C@H](N(C)C)[C@H]2O)[C@](C)(OC)C[C@@H](C)C(=O)[C@H](C)[C@H]2N(CCCCn3cnc(-c4cccnc4)c3)C(=O)O[C@]12C [TELITHROMYCIN]
Reply: 0.06

Query: Next compound: C[C@H]1COc2c(N3CCN(C)CC3)c(F)cc3c(=O)c(C(=O)O)cn1c23.C[C@H]1COc2c(N3CCN(C)CC3)c(F)cc3c(=O)c(C(=O)O)cn1c23.O [LEVOFLOXACIN]
Reply: 1
